# System: primary human hepatic stellate cells (donor 1)
# test: scaled lipid accumulation score (0 = DMSO-like, 1 = nortriptyline-like); higher = stronger HSC inactivation (lipid re-accumulation), active = hit call of the paper
# assayContext: library stock concentration: 4.4 mM; 48 h
Structures can show the parent of a compound that is named as a salt. About 620 (11%) of roughly 5,800 compounds showed activity. Only a selection was taken, and actives are over-represented in it overall.
Examples of compounds with documented scaled lipid accumulation score follow.

Give the reported scaled lipid accumulation score for COc1ccc(CCN(C)CCCC(C#N)(c2ccc(OC)c(OC)c2)C(C)C)cc1OC (centres undefined) [Verapamil] (system: primary human hepatic stellate cells (donor 1)).
0.416 (inactive)

Thanks! And COc1ccc2c(c1OC)C(=O)O[C@@H]2[C@H]1c2c(cc3c(c2OC)OCO3)CCN1C [Noscapine hydrochloride] ?
0.008 (inactive)

Thanks! And CC(C)Nc1cccnc1N1CCN(C(=O)c2cc3cc(NS(C)(=O)=O)ccc3[nH]2)CC1 [Delavirdine mesylate] ?
≤ -0.006 (inactive)

Thanks! And COc1cc2nc(N3CCN(C(=O)C4COc5ccccc5O4)CC3)nc(N)c2cc1OC (centres undefined) [Doxazosin mesylate] ?
0.151 (inactive)

All values here come from the supplement of paper PMC9135407.
